test system: Plasmodium berghei; assay: Antimalarial activity was measured against mice (Mus musculus) infected with Plasmodium berghei by subcutaneous administration of 640 mg/kg dose; format: organism-based; parameters: dose 640 mg/kg, route subcutaneous; details: in vivo, sc
result_type: No. of toxic deaths

>>> df
                                   compound          result_type  reported_result
0  O=c1c2c(n(O)c3ccc(Cl)cc13)CC(c1cccc(C(F)(F)F)c1)C/C2=N\CCN1CCCC1 (centres undefined)  No. of toxic deaths                1
1  CCc1ccc2nc3c(c(O)c2c1)/C(=N/CCCN(C)C)CC(c1ccc(C(F)(F)F)cc1)C3 (centres undefined)  No. of toxic deaths                4
2  CCN(CC)CCC/N=C1\CC(c2ccc(C(F)(F)F)cc2)Cc2c1c(=O)c1cc(Cl)ccc1n2O (centres undefined)  No. of toxic deaths                5

For the next question, use this compound.
## Task Give the value of No. of toxic deaths reported for the following: CC1/C(=N\CCCN(C)C)c2c(nc3ccc(Cl)cc3c2O)CC1c1ccc(C(F)(F)F)cc1 (stereo in doubt; cis)
## Result 1
